- Test system: Target C
- assay method text: RT-qPCR canonical junction panel assay, Target C mRNA
- Type: cell-based
- test conditions: Table 4, read-out: Target C IC50 (decrease in CJ mRNA levels)
pIC50: −log10 of the molar value.
property: pIC50

> print(dat)
                                   compound  value.reported
1  C[C@@H]1CN(c2ccc3nc(-c4cc5cn(C)nc5c(F)c4O)nc(C4CC4)c3c2)C[C@H](C)N1 [Compound 542]          < 5.00

Form field: pIC50 recorded for Cc1cn2cc(-c3ncc4cc(N5C[C@H](C)N[C@@H](C)C5)ccc4n3)cc(C#N)c2n1 [Compound 817] with Target C (enter value)
5.00 to 6.00

Form field: pIC50 recorded for Cc1nc2c(F)c(O)c(-c3ccc4nc(N5CC[C@@H](N[C@H]6C[C@@H](F)C6)C5)ccc4n3)cc2o1 (stereo in doubt) [Compound 375] with Target C (enter value)
> 7.00

Form field: pIC50 recorded for Cn1cc2cc(-c3ccc4nc(N5CCC(NC6(CF)CC6)C5)ccc4n3)c(O)c(F)c2n1 (stereo in doubt) [Compound 357] with Target C (enter value)
> 7.00

Form field: pIC50 recorded for Cc1nc2c(F)c(O)c(-c3ccc4nc(N5CC[C@H](NC6CCC6)C5)ccc4n3)cc2o1 (single isomer, unassigned) [Compound 308] with Target C (enter value)
> 7.00

Form field: pIC50 recorded for Cc1nc2cc(O)c(-c3ccc4nc(N5CC[C@H](N[C@H]6C[C@@H](F)C6)C5)ccc4n3)cc2o1 (stereo in doubt) [Compound 396] with Target C (enter value)
6.00 to 7.00
